study_target: UniProt P28223
pIC50: −log10 of the molar value.
Label 1 for high-side pIC50 (at or above 7) and 0 for low-side pIC50 (below it).

Check this compound for pIC50 at or above 7: CNC(C)c1cc(C(F)(F)F)ccc1Oc1ccc(Cl)c(Cl)c1 (stereo not drawn) 0

Check this compound for pIC50 at or above 7: CNC(C)c1ccccc1Oc1ccc(Cl)c(Cl)c1 (stereo not drawn) 0

Check this compound for pIC50 at or above 7: CNCc1ccc(F)cc1Oc1ccc(Cl)c(Cl)c1 0

Check this compound for pIC50 at or above 7: CNCc1cc(F)ccc1Oc1ccccc1 0

Check this compound for pIC50 at or above 7: CNC(C)c1cc(F)ccc1Oc1ccc(Cl)c(Cl)c1 (stereo not drawn) 0

Check this compound for pIC50 at or above 7: CNC(C)c1ccc(Cl)cc1Oc1ccc(C)c(C)c1 (stereo not drawn) 1

Check this compound for pIC50 at or above 7: CNCc1ccccc1Oc1ccc(Cl)c(Cl)c1 0

Check this compound for pIC50 at or above 7: CNCc1ccc(Cl)cc1Oc1ccc(F)c(C(F)(F)F)c1 1

Check this compound for pIC50 at or above 7: CNCc1ccc(Cl)cc1Oc1ccc(F)c(C)c1 1

Check this compound for pIC50 at or above 7: CNCc1cc(F)ccc1Oc1ccc(Cl)c(F)c1 0

Check this compound for pIC50 at or above 7: CNCc1ccc(C(F)(F)F)cc1Oc1ccc(Cl)c(Cl)c1 0

###

Consider compounds characterized by their log10 IC50 with 5-hydroxytryptamine receptor 2A (Homo sapiens, UniProt P28223).
Sequence (P28223 whole entry): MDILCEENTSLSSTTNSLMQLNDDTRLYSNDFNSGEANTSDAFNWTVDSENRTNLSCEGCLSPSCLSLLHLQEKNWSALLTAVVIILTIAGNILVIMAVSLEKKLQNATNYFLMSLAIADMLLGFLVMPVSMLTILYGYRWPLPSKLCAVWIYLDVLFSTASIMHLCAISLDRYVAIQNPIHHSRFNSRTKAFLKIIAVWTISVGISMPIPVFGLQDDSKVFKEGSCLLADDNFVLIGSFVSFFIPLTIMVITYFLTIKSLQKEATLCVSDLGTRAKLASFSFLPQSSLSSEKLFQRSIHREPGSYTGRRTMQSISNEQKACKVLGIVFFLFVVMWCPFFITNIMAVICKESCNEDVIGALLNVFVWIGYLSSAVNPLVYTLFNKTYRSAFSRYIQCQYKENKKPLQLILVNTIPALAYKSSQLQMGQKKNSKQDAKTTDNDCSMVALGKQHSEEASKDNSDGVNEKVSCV
Please interpret these as log10 of IC50 where IC50 is in nM.

Any idea what its log10 IC50 is? The compound is CNCc1cc(C(F)(F)F)ccc1Oc1ccc(Cl)c(Cl)c1 3.26

Any idea what its log10 IC50 is? The compound is CNCc1ccc(C(F)(F)F)cc1Oc1ccc(Cl)cc1 2.51

Any idea what its log10 IC50 is? The compound is CNCc1cc(F)ccc1Oc1ccc(F)c(Cl)c1 2.76

Any idea what its log10 IC50 is? The compound is CN(C)Cc1cc(N)ccc1Oc1ccc(Cl)c(Cl)c1 2.86

Any idea what its log10 IC50 is? The compound is CNC(C)c1cc(C)ccc1Oc1ccc(Cl)c(Cl)c1 (stereo not drawn) 2.24

Any idea what its log10 IC50 is? The compound is CNCc1cc(C)c(C)cc1Oc1ccc(Cl)c(Cl)c1 1.90

Any idea what its log10 IC50 is? The compound is CN(C)Cc1ccccc1Oc1ccc(Cl)c(Cl)c1 2.16

Any idea what its log10 IC50 is? The compound is CNC(C)c1ccc(Cl)cc1Oc1ccc(C)cc1 (stereo not drawn) 0.55

Any idea what its log10 IC50 is? The compound is CNC(C)c1ccccc1Oc1ccc(C)cc1 (stereo not drawn) 1.74

Any idea what its log10 IC50 is? The compound is CNCc1ccc(OC)cc1Oc1ccc(Cl)c(Cl)c1 2.02

Any idea what its log10 IC50 is? The compound is CCc1cc(Oc2cc(Cl)ccc2CNC)ccc1Cl 1.67

Any idea what its log10 IC50 is? The compound is CNCc1cc(OC)ccc1Oc1ccc(Cl)c(Cl)c1 3.16

Any idea what its log10 IC50 is? The compound is CN(C)Cc1ccccc1Oc1ccc(Cl)cc1 3.30

###

study_target: Sodium-dependent serotonin transporter (Homo sapiens, UniProt P31645)
Sequence (P31645 whole entry): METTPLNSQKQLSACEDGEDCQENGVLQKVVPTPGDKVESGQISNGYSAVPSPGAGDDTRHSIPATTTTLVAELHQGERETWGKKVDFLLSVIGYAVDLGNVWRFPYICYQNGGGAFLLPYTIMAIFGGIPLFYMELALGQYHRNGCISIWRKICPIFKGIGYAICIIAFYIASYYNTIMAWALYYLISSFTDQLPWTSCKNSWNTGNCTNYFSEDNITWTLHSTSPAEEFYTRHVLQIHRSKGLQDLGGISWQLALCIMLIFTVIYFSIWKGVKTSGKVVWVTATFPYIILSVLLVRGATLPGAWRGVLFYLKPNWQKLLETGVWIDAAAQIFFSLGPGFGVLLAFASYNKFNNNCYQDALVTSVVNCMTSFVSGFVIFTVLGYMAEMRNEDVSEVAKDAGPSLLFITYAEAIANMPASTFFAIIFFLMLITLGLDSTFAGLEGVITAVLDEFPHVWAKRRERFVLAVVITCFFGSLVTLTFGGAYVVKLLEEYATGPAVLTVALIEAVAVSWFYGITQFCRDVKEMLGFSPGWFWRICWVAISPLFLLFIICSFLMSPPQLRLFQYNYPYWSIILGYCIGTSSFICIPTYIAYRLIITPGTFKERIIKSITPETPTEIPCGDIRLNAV
protocol_description: Inhibition of serotonin reuptake at SERT
Assignment: determine reported pIC50 for the given compounds.
Would you please state pIC50, meaning minus log10 of the concentration in mol/L, as a bare number?

Any idea what its pIC50 is? The compound is CNCc1ccc(Cl)cc1Oc1ccc(Cl)cc1 8.04

Any idea what its pIC50 is? The compound is CN(C)Cc1ccccc1Oc1ccc(Cl)cc1 8.77

Any idea what its pIC50 is? The compound is CNC(C)c1ccccc1Oc1ccc(Cl)c(Cl)c1 (stereo not drawn) 7.64

Any idea what its pIC50 is? The compound is CNC(C)c1cc(C)ccc1Oc1ccc(Cl)c(Cl)c1 (stereo not drawn) 7.40

Any idea what its pIC50 is? The compound is CNCc1cc(Cl)ccc1Oc1ccc(Cl)cc1 8.13

Any idea what its pIC50 is? The compound is CNCc1cc(OC)c(OC)cc1Oc1ccc(Cl)c(Cl)c1 7.85

Any idea what its pIC50 is? The compound is CNCc1cc(Cl)ccc1Oc1ccc(Cl)c(Cl)c1 8.24

Any idea what its pIC50 is? The compound is CNCc1cc(Br)ccc1Oc1ccc(Cl)c(Cl)c1 8.32

Any idea what its pIC50 is? The compound is CNCc1cc(C#N)ccc1Oc1ccc(Cl)c(Cl)c1 8.60

Any idea what its pIC50 is? The compound is CNCc1cc(F)c(OC)cc1Oc1ccc(Cl)c(Cl)c1 8.35

Any idea what its pIC50 is? The compound is CNCc1ccc(C(F)(F)F)cc1Oc1ccc(Cl)c(Cl)c1 7.53

Any idea what its pIC50 is? The compound is CSc1ccc(Oc2ccccc2CN(C)C)cc1 9.00

Any idea what its pIC50 is? The compound is CNCc1cc(F)ccc1Oc1ccc(Cl)c(Cl)c1 8.48

Any idea what its pIC50 is? The compound is CNC(C)c1ccccc1Oc1ccc(Cl)cc1 (stereo not drawn) 7.25

Any idea what its pIC50 is? The compound is CNCc1cc(F)ccc1Oc1ccccc1 6.42

Any idea what its pIC50 is? The compound is CNCc1cc(F)ccc1Oc1ccc(-c2ccccc2)cc1 7.54

Any idea what its pIC50 is? The compound is CNCc1ccc(Cl)cc1Oc1ccc(Cl)c(C)c1 8.37

Any idea what its pIC50 is? The compound is CN(C)Cc1ccc(C(F)(F)F)cc1Oc1ccc(Cl)c(Cl)c1 7.77

Any idea what its pIC50 is? The compound is CNCc1ccc(Cl)cc1Oc1ccc(Cl)c(F)c1 7.06

Any idea what its pIC50 is? The compound is CNC(C)c1ccc(Cl)cc1Oc1ccc(C)c(C)c1 (stereo not drawn) 6.94

Any idea what its pIC50 is? The compound is CNC(C)c1ccc(OC)cc1Oc1ccc(Cl)c(Cl)c1 (stereo not drawn) 7.39

Any idea what its pIC50 is? The compound is CNCc1cc(S(=O)(=O)NC)ccc1Oc1ccc(Cl)c(Cl)c1 8.03

Any idea what its pIC50 is? The compound is CNCc1ccc(Cl)cc1Oc1ccc(F)c(C)c1 7.51

Any idea what its pIC50 is? The compound is CNCc1cc(F)ccc1Oc1ccc(Cl)cc1 8.02

Any idea what its pIC50 is? The compound is CNC(C)c1cc(F)ccc1Oc1ccc(Cl)c(Cl)c1 (stereo not drawn) 8.09

Any idea what its pIC50 is? The compound is CNCc1ccccc1Oc1ccc(Cl)c(Cl)c1 8.40

Any idea what its pIC50 is? The compound is CNCc1cc(C)c(C)cc1Oc1ccc(Cl)c(Cl)c1 8.05

Any idea what its pIC50 is? The compound is CNCc1ccc(F)cc1Oc1ccc(Cl)c(Cl)c1 7.44

Any idea what its pIC50 is? The compound is CN(C)Cc1cc(N)ccc1Oc1ccc(Cl)c(Cl)c1 8.30

Any idea what its pIC50 is? The compound is CNCc1cc(C(F)(F)F)ccc1Oc1ccc(Cl)c(Cl)c1 7.66

Any idea what its pIC50 is? The compound is CNCc1ccccc1Oc1ccc(C)c(C)c1 7.89

Any idea what its pIC50 is? The compound is CNCc1ccc(OC)cc1Oc1ccc(Cl)c(Cl)c1 8.06

Any idea what its pIC50 is? The compound is CNCc1cc(F)ccc1Oc1ccc(C)c(C)c1 8.12

Any idea what its pIC50 is? The compound is CC(c1ccccc1Oc1ccc(Cl)c(Cl)c1)N(C)C (stereo not drawn) 8.49

Any idea what its pIC50 is? The compound is CN(C)Cc1ccccc1Oc1ccc(Cl)c(Cl)c1 9.46

Any idea what its pIC50 is? The compound is CNC(C)c1cc(F)ccc1Oc1ccc(Cl)cc1 (stereo not drawn) 7.46

Any idea what its pIC50 is? The compound is CNCc1ccc(Cl)cc1Oc1ccc(C)c(C)c1 8.33

Any idea what its pIC50 is? The compound is CNCc1cc(C(N)=O)ccc1Oc1ccc(Cl)c(Cl)c1 8.42

Any idea what its pIC50 is? The compound is CCc1cc(Oc2ccc(F)cc2CNC)ccc1Cl 8.26

Any idea what its pIC50 is? The compound is CNCc1ccc(Cl)cc1Oc1ccc(C)c(Cl)c1 8.38

Any idea what its pIC50 is? The compound is COc1ccc(CN(C)C)c(Oc2ccc(Cl)c(Cl)c2)c1 8.44

Any idea what its pIC50 is? The compound is CNCc1ccccc1Oc1ccc(Cl)cc1 7.86

Any idea what its pIC50 is? The compound is CNCc1cc(F)ccc1Oc1ccc(F)c(Cl)c1 7.43

Any idea what its pIC50 is? The compound is Cc1ccc(Oc2ccc(Cl)c(Cl)c2)c(CN(C)C)c1 8.63

Any idea what its pIC50 is? The compound is CNCc1ccc(Cl)cc1Oc1cccc(Cl)c1 7.11

Any idea what its pIC50 is? The compound is CNCc1cc(F)c(Cl)cc1Oc1ccc(Cl)c(Cl)c1 8.36

Any idea what its pIC50 is? The compound is CN(C)Cc1ccccc1Oc1ccc(F)c(F)c1 7.46

Any idea what its pIC50 is? The compound is CNC(C)c1ccccc1Oc1ccc(C)cc1 (stereo not drawn) 7.03

Any idea what its pIC50 is? The compound is CNC(C)c1cc(C(F)(F)F)ccc1Oc1ccc(Cl)c(Cl)c1 (stereo not drawn) 7.21

Any idea what its pIC50 is? The compound is CNCc1cc(Cl)ccc1Oc1ccc(C)c(C)c1 8.01

Any idea what its pIC50 is? The compound is CNCc1ccc(Cl)cc1Oc1ccc(F)c(Cl)c1 7.60

Any idea what its pIC50 is? The compound is CNCc1ccc(Cl)cc1Oc1ccc(C)cc1 7.77

Any idea what its pIC50 is? The compound is CNCc1ccc(C(F)(F)F)cc1Oc1ccc(Cl)cc1 7.51
